- Tested on: SARS-CoV-2
- assay remarks: Antiviral activity against SARS-CoV-2 Omicron BA.1 infected in African green monkey Vero E6 cells assessed as inhibition of plaque formation at 50 uM incubated for 1 hr followed by virus-drug mixture washout and further addition of media without compound for 5 to 7 days by crystal violet staining based assay relative to control
- Type: functional, Severe acute respiratory syndrome coronavirus 2
- measurement setup: Severe acute respiratory syndrome coronavirus 2, Omicron BA.1, Vero C1008
endpoint label: inhibition at 50 µM

Value lookup for inhibition at 50 µM; key = O=C(O)[C@H](O)Cc1ccc(O)c(O)c1
40%

Would you mind doing CCCCCCNC(=O)[C@@H](Cc1ccc(O)c(O)c1)OC(=O)/C=C/c1ccc(O)c(O)c1 as well?
77%

Would you mind doing O=C(/C=C/c1ccc(O)c(O)c1)O[C@H](Cc1ccc(O)c(O)c1)C(=O)NCCCCCCCl as well?
66%

Would you mind doing O=C(/C=C/c1ccc(O)c(O)c1)O[C@H](Cc1ccc(O)c(O)c1)C(=O)N1CCOCC1 as well?
23%

Would you mind doing O=C(O)/C=C/c1ccc(O)c(O)c1 as well?
36%

====

- System: SARS-CoV-2
- assay remarks: Antiviral activity against SARS-CoV-2 Delta infected in African green monkey Vero E6 cells assessed as inhibition of plaque formation at 0.5 uM incubated for 1 hr followed by virus-drug mixture washout and further addition of media without compound for 5 to 7 days by crystal violet staining based assay
- Type: functional, organism-based
- measurement setup: Severe acute respiratory syndrome coronavirus 2
Active and inactive are the calls of the source. No cut-off for these calls is given here.
endpoint label: inhibition

compound: O=C(/C=C/c1ccc(O)c(O)c1)O[C@H](Cc1ccc(O)c(O)c1)C(=O)NCCCCCCCl
inhibition: inactive
--
compound: O=C(/C=C/c1ccc(O)c(O)c1)O[C@H](Cc1ccc(O)c(O)c1)C(=O)N1CCCCC1
inhibition: inactive
--
compound: O=C(/C=C/c1ccc(O)c(O)c1)O[C@H](Cc1ccc(O)c(O)c1)C(=O)NCc1ccco1
inhibition: inactive
--
compound: COCCNC(=O)[C@@H](Cc1ccc(O)c(O)c1)OC(=O)/C=C/c1ccc(O)c(O)c1
inhibition: inactive
--
compound: CCCCCCNC(=O)[C@@H](Cc1ccc(O)c(O)c1)OC(=O)/C=C/c1ccc(O)c(O)c1
inhibition: inactive
--
compound: C#CCNC(=O)[C@@H](Cc1ccc(O)c(O)c1)OC(=O)/C=C/c1ccc(O)c(O)c1
inhibition: inactive
--
compound: O=C(/C=C/c1ccc(O)c(O)c1)O[C@H](Cc1ccc(O)c(O)c1)C(=O)N1CCOCC1
inhibition: inactive

Proceeding to the next compound to report its inhibition.
Value lookup for inhibition; key = O=C(/C=C/c1ccc(O)c(O)c1)O[C@H](Cc1ccc(O)c(O)c1)C(=O)NCc1ccccc1
inactive

====

- System: SARS-CoV-2
- assay remarks: Antiviral activity against SARS-CoV-2 Omicron BA.1 infected in African green monkey Vero E6 cells assessed as inhibition of plaque formation at 0.5 uM incubated for 1 hr followed by virus-drug mixture washout and further addition of media without compound for 5 to 7 days by crystal violet staining based assay relative to control
- Type: functional, Severe acute respiratory syndrome coronavirus 2
- measurement setup: Severe acute respiratory syndrome coronavirus 2, Omicron BA.1, Vero C1008
Provide the reported inhibition at 0.5 µM of each item.
Kindly provide the numeric value in % only, without the unit symbol.

Value lookup for inhibition at 0.5 µM; key = C#CCNC(=O)[C@@H](Cc1ccc(O)c(O)c1)OC(=O)/C=C/c1ccc(O)c(O)c1
17

Would you mind doing O=C(/C=C/c1ccc(O)c(O)c1)O[C@H](Cc1ccc(O)c(O)c1)C(=O)NCCCCCCCl as well?
14

Would you mind doing O=C(/C=C/c1ccc(O)c(O)c1)O[C@H](Cc1ccc(O)c(O)c1)C(=O)N1CCCCC1 as well?
24

Would you mind doing CCCCCCNC(=O)[C@@H](Cc1ccc(O)c(O)c1)OC(=O)/C=C/c1ccc(O)c(O)c1 as well?
21
